Consider the following compounds; for each one, report its IC50.
# system: gastrin receptor sites on the parietal cell membranes of the fundic mucosa of a guinea-pig stomach (Cavia porcellus)
# Sequence (H0VZC5 1-426): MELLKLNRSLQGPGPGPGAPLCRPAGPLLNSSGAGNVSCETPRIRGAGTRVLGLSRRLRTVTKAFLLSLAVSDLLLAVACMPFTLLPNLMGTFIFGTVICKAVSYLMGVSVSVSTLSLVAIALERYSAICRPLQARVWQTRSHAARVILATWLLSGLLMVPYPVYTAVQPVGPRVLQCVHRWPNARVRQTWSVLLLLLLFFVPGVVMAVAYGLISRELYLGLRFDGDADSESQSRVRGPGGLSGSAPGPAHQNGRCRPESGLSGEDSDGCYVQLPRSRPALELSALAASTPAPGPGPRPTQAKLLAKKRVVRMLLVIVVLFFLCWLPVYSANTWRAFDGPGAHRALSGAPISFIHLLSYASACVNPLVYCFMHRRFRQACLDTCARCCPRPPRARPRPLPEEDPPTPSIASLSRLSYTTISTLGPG
# assay-method-text: Inhibition of binding of tritiated pentagastrin to isolated guinea-pig gastric glands
# Parameters: from tissue; host or cells: isolated gastric glands from guinea-pig fundic mucosa (collagenase digestion)
Hi! Could you send only the number? It should be in µM, unit omitted.

Returns the measured IC50 for the input compound. Input: CCC(C)(CC)CCNC(=O)C(CCC(=O)O)NC(=O)c1cccc(Cl)c1 (racemic)
0.091

And CC(C)(C)CCNC(=O)C(CCC(=O)O)NC(=O)c1cc(Cl)cc(Cl)c1 (racemic) ?
0.069

---

# assay-method-text: in vivo
# applied-conditions: mouse, iv
readout-name: LD50

Returns the measured LD50 for the input compound. Input: CC(C)(C)CCNC(=O)[C@@H](CCC(=O)O)NC(=O)c1cccc(Cl)c1 [D1]
~600 mg/kg

---

# system: central gastrin receptors (Mus musculus)
# assay-method-text: Inhibition of binding of tritiated pentagastrin to mouse cerebral cortex membranes
# Design: Mouse cortex tissue was homogenised cold in 20 volumes of tris buffer (pH 7.7); from tissue; host or cells: mouse cerebral cortex membranes; species or system mice
# applied-conditions: displacement of pentagastrin tritiate; 40 minutes at 37°C
Mark YES for IC50 under 800 nM, NO if at or over.

Could you please tell me whether IC50 recorded for CCCCCNC(=O)C(CCC(=O)O)NC(=O)c1cccc(Cl)c1 (racemic) is less than 800 nM?
NO

And CCC(C)(C)CCNC(=O)C(CCC(=O)O)NC(=O)c1cccc(C)c1 (racemic) ?
NO

And CCC(C)(CC)CCNC(=O)C(CC(=O)O)NC(=O)c1cccc(Cl)c1 (racemic) ?
YES

And CC(C)(C)CCNC(=O)[C@@H](CCC(=O)O)NC(=O)c1cccc(Cl)c1 [D1] ?
YES

And CCCCCN(CCCCC)C(=O)C(CCC(=O)O)NC(=O)c1ccc(Cl)c(Cl)c1 (centres unmarked) [Lorglumide, reference compound] ?
NO

---

# system: gastrin receptor sites on the parietal cell membranes of the fundic mucosa of a guinea-pig stomach (Cavia porcellus)
# assay-method-text: Inhibition of binding of tritiated pentagastrin to isolated guinea-pig gastric glands
# Set-up: from tissue; host or cells: isolated guinea-pig gastric (fundic) glands
# applied-conditions: displacement of 50% of pentagastrin tritiate; 30 minutes at 25°C
readout-name: IC50 (nM)
Hi! Could you send only the number? It should be in nM, unit omitted.

Returns the measured IC50 for the input molecule. Input: CSCC[C@H](NC(=O)[C@H](Cc1c[nH]c2ccccc12)NC(=O)CCNC(=O)OC(C)(C)C)C(=O)N[C@@H](CC(=O)O)C(=O)N[C@@H](Cc1ccccc1)C(N)=O [Pentagastrin]
0.41

---

# system: gastrin receptor sites on the parietal cell membranes of the fundic mucosa of a guinea-pig stomach (Cavia porcellus)
# assay-method-text: Inhibition of binding of tritiated pentagastrin to isolated guinea-pig gastric glands
# Set-up: from tissue; host or cells: isolated gastric glands from guinea-pig fundic mucosa (collagenase digestion)
# applied-conditions: displacement of 50% of pentagastrin tritiate; 30 minutes at 25°C; read-out: IC50
readout-name: pIC50
Note on pIC50: it is the negative log10 of concentration, concentration in mol/L.

Returns the measured pIC50 for the input compound. Input: CCCCCCNC(=O)C(CCC(=O)O)NC(=O)c1cccc(C)c1 (racemic)
5.24

And CCC(C)(C)CCNC(=O)C(CCC(=O)O)NC(=O)c1cccc(Cl)c1 (racemic) ?
6.64

And O=C(O)CC[C@H](NC(=O)c1cccc(Cl)c1)C(=O)NC1CCCCCC1 [D6, reference compound] ?
4.17

And `CCC(C)(CC)CCNC(=O)[C@@H](CCC(=O)O)NC(=O)c1cccc(Cl)c1` ?
7.24

And CCC(C)(CC)CCNC(=O)C(CCC(=O)O)NC(=O)c1cc(C)cc(C)c1 (racemic) ?
5.54

And CC(C)(C)CCNC(=O)[C@@H](CCC(=O)O)NC(=O)c1cccc(Cl)c1 [D1] ?
7.28

And CCCCCN(CCCCC)C(=O)C(CCC(=O)O)NC(=O)c1ccc(Cl)c(Cl)c1 (stereo not drawn) [Lorglumide, reference compound] ?
4.96

And CC(C)(C)CCNC(=O)[C@H](CCC(=O)O)NC(=O)c1cccc(Cl)c1 [D5, reference compound] ?
6.28

And O=C(O)CCC(NC(=O)c1cccc(Cl)c1)C(=O)NC1CCCCC1 (racemic) ?
4.77

And `O=C(O)CC[C@@H](NC(=O)c1cccc(Cl)c1)C(=O)NC1CCCCCC1` ?
5.64

And Cc1cccc(C(=O)NC(CCC(=O)O)C(=O)NC2CCCCC2)c1 (racemic) ?
4.39

And O=C(O)CCC(NC(=O)c1cccc(Cl)c1)C(=O)NC1CCCCCC1 (racemic) ?
5.42

And O=C(O)CC(NC(=O)c1cccc(Cl)c1)C(=O)NC1CCCCCC1 (racemic) ?
5.14

And CC(C)(C)CCCNC(=O)[C@@H](CCC(=O)O)NC(=O)c1cccc(Cl)c1 [D2] ?
7.47

And CC(C)(C)CCNC(=O)C(CCC(=O)O)NC(=O)c1cccc(Cl)c1 (racemic) ?
7.10

And CC(C)CCNC(=O)C(CCC(=O)O)NC(=O)c1cccc(Cl)c1 (racemic) ?
5.51

And CCCCCCCNC(=O)C(CCC(=O)O)NC(=O)c1cccc(Cl)c1 (racemic) ?
4.92

And CCCCCCNC(=O)C(CCC(=O)O)NC(=O)c1cccc(Cl)c1 (racemic) ?
5.32

And CCC(C)(C)CCNC(=O)C(CCC(=O)O)NC(=O)c1cccc(C)c1 (racemic) ?
6.17

And CCC(C)(CCNC(=O)C(CCC(=O)O)NC(=O)c1cccc(Cl)c1)C(C)C (stereo not drawn) ?
6.54

And CCCCCNC(=O)C(CCC(=O)O)NC(=O)c1cccc(Cl)c1 (racemic) ?
5.70

And CCC(C)(CC)CCNC(=O)C(CC(=O)O)NC(=O)c1cccc(C)c1 (racemic) ?
6.08

And CCC(C)(CC)CCNC(=O)C(CCC(=O)O)NC(=O)c1cc(Cl)ccc1[N+](=O)[O-] (racemic) ?
7.18

And CCC(CC)(CC)CCNC(=O)C(CCC(=O)O)NC(=O)c1cccc(Cl)c1 (racemic) ?
7.11

And CCC(C)CCNC(=O)C(CCC(=O)O)NC(=O)c1cccc(Cl)c1 (stereo not drawn) ?
5.35

And CCC(CC)CCNC(=O)C(CCC(=O)O)NC(=O)c1cccc(Cl)c1 (racemic) ?
6.19

And CCCCCNC(=O)C(CCC(=O)O)NC(=O)c1cccc(C)c1 (racemic) ?
5.35

And CCC(C)(CC)CCNC(=O)C(CC(=O)O)NC(=O)c1cccc(Cl)c1 (racemic) ?
6.64

And CC(C)(C)CCCNC(=O)C(CCC(=O)O)NC(=O)c1cccc(Cl)c1 (racemic) ?
6.70

And CC(C)CCCNC(=O)C(CCC(=O)O)NC(=O)c1cccc(Cl)c1 (racemic) ?
5.48

---

# system: central gastrin receptors (Mus musculus, UniProt P56481)
# Sequence (P56481 whole entry): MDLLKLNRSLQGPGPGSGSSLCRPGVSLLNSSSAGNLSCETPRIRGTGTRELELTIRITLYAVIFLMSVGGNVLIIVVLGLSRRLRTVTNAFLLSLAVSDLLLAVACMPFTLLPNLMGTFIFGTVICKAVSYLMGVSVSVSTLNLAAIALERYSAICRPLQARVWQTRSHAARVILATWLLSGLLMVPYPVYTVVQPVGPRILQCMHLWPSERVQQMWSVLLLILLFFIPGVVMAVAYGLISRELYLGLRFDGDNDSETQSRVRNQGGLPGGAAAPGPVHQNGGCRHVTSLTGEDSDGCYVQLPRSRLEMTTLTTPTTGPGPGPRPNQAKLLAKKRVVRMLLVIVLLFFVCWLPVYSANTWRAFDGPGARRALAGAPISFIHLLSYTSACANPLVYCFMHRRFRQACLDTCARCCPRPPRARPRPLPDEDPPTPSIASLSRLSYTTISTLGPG
# assay-method-text: Inhibition of binding of tritiated pentagastrin to mouse cerebral cortex membranes
# Design: Mouse cortex tissue was homogenised cold in 20 volumes of tris buffer (pH 7.7); from tissue; host or cells: mouse cerebral cortex membranes; species or system mice
# applied-conditions: displacement of pentagastrin tritiate; 40 minutes at 37°C
Mark TRUE for IC50 under 100 nM, FALSE if at or over.

Could you please tell me whether IC50 recorded for CC(C)(C)CCNC(=O)[C@H](CCC(=O)O)NC(=O)c1cccc(Cl)c1 [D5, reference compound] is less than 100 nM?
FALSE

And CCC(C)(CC)CCNC(=O)C(CCC(=O)O)NC(=O)c1cccc(Cl)c1 (racemic) ?
TRUE

And CCC(CC)(CC)CCNC(=O)C(CCC(=O)O)NC(=O)c1cccc(Cl)c1 (racemic) ?
TRUE

And CCCCCCCNC(=O)C(CCC(=O)O)NC(=O)c1cccc(Cl)c1 (racemic) ?
FALSE

And O=C(O)CCC(NC(=O)c1cccc(Cl)c1)C(=O)NC1CCCCCC1 (racemic) ?
FALSE

And CC(C)(C)CCNC(=O)C(CCC(=O)O)NC(=O)c1cccc(Cl)c1 (racemic) ?
TRUE

And CCCCCCNC(=O)C(CCC(=O)O)NC(=O)c1cccc(Cl)c1 (racemic) ?
FALSE

And CCC(C)(C)CCNC(=O)C(CCC(=O)O)NC(=O)c1cccc(Cl)c1 (racemic) ?
FALSE

And CCCCCNC(=O)C(CCC(=O)O)NC(=O)c1cccc(C)c1 (racemic) ?
FALSE

And CCC(C)(CC)CCNC(=O)C(CCC(=O)O)NC(=O)c1cc(C)cc(C)c1 (racemic) ?
FALSE

And CC(C)(C)CCNC(=O)C(CCC(=O)O)NC(=O)c1cc(Cl)cc(Cl)c1 (racemic) ?
TRUE
